Biological target: C3a anaphylatoxin chemotactic receptor (Homo sapiens) (UniProt Q16581)
Sequence (whole entry): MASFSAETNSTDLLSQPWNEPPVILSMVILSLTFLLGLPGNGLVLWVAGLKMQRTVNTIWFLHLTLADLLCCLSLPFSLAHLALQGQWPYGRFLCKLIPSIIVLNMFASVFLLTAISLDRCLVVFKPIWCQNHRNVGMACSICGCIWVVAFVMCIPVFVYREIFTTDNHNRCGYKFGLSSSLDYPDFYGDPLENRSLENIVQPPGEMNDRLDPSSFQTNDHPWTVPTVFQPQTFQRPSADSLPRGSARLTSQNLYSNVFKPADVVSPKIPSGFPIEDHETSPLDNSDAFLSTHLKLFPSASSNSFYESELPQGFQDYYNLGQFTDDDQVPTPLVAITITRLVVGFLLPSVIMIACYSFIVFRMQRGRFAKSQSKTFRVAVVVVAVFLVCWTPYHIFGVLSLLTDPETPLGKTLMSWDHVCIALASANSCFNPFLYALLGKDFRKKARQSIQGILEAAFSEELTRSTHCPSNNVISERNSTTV
Test: Agonist activity at human C3a receptor in human U937 cells assessed as induction of intracellular calcium release at 1 mM
Type: functional, cell-based
Settings: U-937
Active and inactive are the calls of the source. The rule behind the calls is not given here. Square brackets hold non-standard residues; d marks the D form. Peptide text beside a SMILES is read from it. Cha = N[C@@H](CC1CCCCC1)C(=O)O

compound	Activity
CC(C)C[C@H](NC(=O)[C@@H]1CCCN1C(=O)[C@@H](N)Cc1c[nH]c2ccccc12)C(=O)N1CCC[C@H]1C(=O)N[C@@H](CCCNC(=N)N)C(=O)O (H-WPLPR-OH)	inactive
CC(C)C[C@H](NC(=O)[C@@H]1CCCN1C(=O)[C@H](CCCCN)NC(=O)[C@@H](N)CC1CCCCC1)C(=O)N[C@@H](C)C(=O)N[C@@H](CCCNC(=N)N)C(=O)O (H-[Cha]KPLAR-OH)	inactive
CC(C)C[C@H](NC(=O)[C@@H](N)Cc1ccccc1)C(=O)N[C@H](C(=O)N[C@@H](CC1CCCCC1)C(=O)N[C@@H](C)C(=O)N[C@@H](CCCNC(=N)N)C(=O)O)[C@@H](C)O	inactive
